Experimental Details: amyloid nucleation score (Sup35N fusion, yeast selection) (log enrichment); library NNK1; higher = more nucleation; inactive = no reads after selection;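 also: zero at mode of non-aggregating sequences after 7 days selection at 30°C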
Assay Readout: amyloid nucleation score
Enter a number only.

Known amyloid nucleation score results, listed for orientation:
INSERT INTO assay_data (substance, meas_value) VALUES
  ('NIEVYDFYNINSMYNV', 4.54),
  ('WSSKLFCIGLDLCVVDDMCF', 2.44),
  ('SLWNDFHMVAVYLVTLSSVD', 0.895),
  ('VTKVTLMLFLSCWLF', -0.677),
  ('TNRVTGSLWDEVWSDPGPEC', -1.28);

query: Identify measured amyloid nucleation score corresponding to WFTGGFRVIMGS
result: 0.728

query: Identify measured amyloid nucleation score corresponding to FHVVSFQGETCDHRIGRIVY
result: 0.002

query: Identify measured amyloid nucleation score corresponding to VKPLKHPSGYYAMRRFVYNI
result: -0.566

query: Identify measured amyloid nucleation score corresponding to PVCWSHFYFRVDVFYEWGRV
result: -0.274

query: Identify measured amyloid nucleation score corresponding to RNTFHFNNMALPVLQT
result: -1.23

====

Experimental Details: amyloid nucleation score (Sup35N fusion, yeast selection) (log enrichment); library NNK3; higher = more nucleation; inactive = no reads after selection
Assay Readout: amyloid nucleation score

Known amyloid nucleation score results, listed for orientation:
INSERT INTO measurements (substance, assay_readout, meas_value) VALUES
  ('SRLNWSRRWSLVSQNARRTS', 'amyloid nucleation score', 'inactive'),
  ('SLYRGYLFGCGQFDNIVYEL', 'amyloid nucleation score', 'inactive'),
  ('GGKQCTPNDTM', 'amyloid nucleation score', -0.186),
  ('NKRGNCVEKDDCFVMYEWNM', 'amyloid nucleation score', 'inactive'),
  ('EARLTSLCKKQYEF', 'amyloid nucleation score', 'inactive');

Turning now to a further substance:
query: Identify measured amyloid nucleation score corresponding to PTVQCC
result: inactive

====

Experimental Details: amyloid nucleation score (Sup35N fusion, yeast selection) (log enrichment); library NNK3; higher = more nucleation; inactive = no reads after selection
Assay Readout: amyloid nucleation score

Known amyloid nucleation score results, listed for orientation:
INSERT INTO measurements (substance, assay_readout, meas_value) VALUES
  ('VHLNCCTVLKEVRLFT', 'amyloid nucleation score', 0.78),
  ('TCEWQRTCNPVGMSYKWSRG', 'amyloid nucleation score', 'inactive'),
  ('FGFPTFFSMTV', 'amyloid nucleation score', 'inactive'),
  ('DIVYQARCA', 'amyloid nucleation score', 'inactive'),
  ('VWQRAKSSTIGPLIW', 'amyloid nucleation score', 'inactive');

query: Identify measured amyloid nucleation score corresponding to WFDNRGLSFPYVYLLREHGK
result: 1.13

query: Identify measured amyloid nucleation score corresponding to VAETYLRTA
result: inactive

query: Identify measured amyloid nucleation score corresponding to QLHNYARMKAQLLAVQV
result: inactive

query: Identify measured amyloid nucleation score corresponding to IEGEYLVASAWRFLQSKHAH
result: inactive

query: Identify measured amyloid nucleation score corresponding to SCGMERRLIIYSSSHNNILY
result: 0.178

====

Experimental Details: amyloid nucleation score (Sup35N fusion, yeast selection) (log enrichment); library NNK2; higher = more nucleation; inactive = no reads after selection
Assay Readout: amyloid nucleation score
Enter a number only.

Known amyloid nucleation score results, listed for orientation:
INSERT INTO measurements (sequence_data, assay_readout, meas_value) VALUES
  ('SSWAGVMYIVHNTKVHSYTI', 'amyloid nucleation score', 3.19),
  ('SGNGLLMCPMGSRTGRLFHR', 'amyloid nucleation score', 3.54),
  ('VLLKLVDLWL', 'amyloid nucleation score', -0.017),
  ('VCSGGLQDSRGYCCYPVGRM', 'amyloid nucleation score', 1.31),
  ('RQGPALFSKINIATLKWLSM', 'amyloid nucleation score', 0.511);

query: Identify measured amyloid nucleation score corresponding to VWPGLIGHRSFFINLHVGKG
result: 7.38

query: Identify measured amyloid nucleation score corresponding to QQLLSMLLFNFQYGCARLYC
result: 0.072

query: Identify measured amyloid nucleation score corresponding to KSLLWHLQLLAKT
result: 0.174

query: Identify measured amyloid nucleation score corresponding to INYSFWRSHSSP
result: 4.42

query: Identify measured amyloid nucleation score corresponding to VSYGVWSCIRGL
result: -0.324

query: Identify measured amyloid nucleation score corresponding to AGLLYVSRLNWSVSQRNGVG
result: 0.131

query: Identify measured amyloid nucleation score corresponding to RLNMYSLSRLVYWAIVMRKM
result: 0.823

query: Identify measured amyloid nucleation score corresponding to SSLGSSGAEKSRIGYIVIER
result: 0.261

query: Identify measured amyloid nucleation score corresponding to TDIRTSGDERWAFDSMRTGD
result: 0.701

query: Identify measured amyloid nucleation score corresponding to VIRVLSMLFFSRVLVPVNSK
result: 0.151

====

Experimental Details: amyloid nucleation score (Sup35N fusion, yeast selection) (log enrichment); library NNK1; higher = more nucleation; inactive = no reads after selection
// classify(record): look up amyloid nucleation score in ranges lo: < -0.08; mid: ≥ -0.08 and < 0.6; hi: ≥ 0.6

query: Into which bin does this substance go? DNGFSTQA
result: lo

query: Into which bin does this substance go? FGGKHFYVGGRFGLLNMCDF
result: lo

query: Into which bin does this substance go? MLLPSYVEF
result: hi

query: Into which bin does this substance go? CVPDGKFRSKRIPGRNFPLL
result: mid

query: Into which bin does this substance go? YYSYMNCIMITISLLMLVLQ
result: mid

query: Into which bin does this substance go? QYNSGLDRMA
result: hi

query: Into which bin does this substance go? NAQWKHETHIFCSAMFVTEC
result: hi

query: Into which bin does this substance go? EWDSYMGPFAERMEYNVVFH
result: mid

query: Into which bin does this substance go? SLLCCVLVFSFCFSPFRSSE
result: hi

query: Into which bin does this substance go? TYCNQWIGCMGYRKKHEPR
result: mid

query: Into which bin does this substance go? MVGSAVVFVLENLGVTGSWG
result: mid

query: Into which bin does this substance go? WVLGGEFPYKRGGIAASLVL
result: lo

query: Into which bin does this substance go? GVFEPCRVRSFMHIVSIADR
result: lo

query: Into which bin does this substance go? STNIGWAMINLKRYPVLRDA
result: lo

query: Into which bin does this substance go? FGGSLMASFDCTRPSSMER
result: lo

query: Into which bin does this substance go? MKFRINVDLLLNLDNPGIKL
result: mid

query: Into which bin does this substance go? DISRMMSISRLFFYNNVLFT
result: lo

query: Into which bin does this substance go? VTRYVPECGWKDLDLASWYL
result: hi

query: Into which bin does this substance go? GYGSHNEAGKLGVGGEVCYG
result: hi

query: Into which bin does this substance go? MMGGKDCQFYCSIPLFRVMM
result: hi

query: Into which bin does this substance go? LIFVKDVTLVMHGEERYRRS
result: hi

query: Into which bin does this substance go? VVVRLRFRNSIPSILSQR
result: lo

query: Into which bin does this substance go? SRGPRFDCPMLVTVPSTSLE
result: lo

query: Into which bin does this substance go? ISAVGKYESDTVGPSKND
result: mid

query: Into which bin does this substance go? DWVPLKSHISWLSVTRVLIV
result: hi

query: Into which bin does this substance go? HTRNVKTLRVKHSIDVPFLP
result: hi

query: Into which bin does this substance go? SGDRAYFSKFSVCIPRDRVQ
result: mid

====

Experimental Details: amyloid nucleation score (Sup35N fusion, yeast selection) (log enrichment); library NNK1; higher = more nucleation; inactive = no reads after selection
Assay Readout: amyloid nucleation score
Enter a number only.

Known amyloid nucleation score results, listed for orientation:
INSERT INTO measurements (sequence_data, meas_value) VALUES
  ('VMVWHCRSATTWWKQVTMNL', -0.584),
  ('VFAICGSTCVGEKGTWPGEG', -0.263),
  ('LSNYYHDGILVIMRSATNDH', 1.61);

query: Identify measured amyloid nucleation score corresponding to PVVDKLSDVHVM
result: -0.262

query: Identify measured amyloid nucleation score corresponding to SKYGAYGRMVSSNLDT
result: -0.204

query: Identify measured amyloid nucleation score corresponding to QFILRDNVVRRMKFRGVPNF
result: 2.22

query: Identify measured amyloid nucleation score corresponding to MSVEIVTIGGGF
result: -0.481

====

Listed substances paired with reported amyloid nucleation score
Experimental Details: amyloid nucleation score (Sup35N fusion, yeast selection) (log enrichment); library NNK2; higher = more nucleation; inactive = no reads after selection
Enter a number only.

INSERT INTO assay_data (substance, assay_readout, meas_value) VALUES
  ('YFYLFYCEIRVPTELYLNMP', 'amyloid nucleation score', 3.15),
  ('LRWQKNLNSL', 'amyloid nucleation score', -0.778),
  ('RMLSLGNYGSNAYICCIVCY', 'amyloid nucleation score', 1.92),
  ('DVVEDF', 'amyloid nucleation score', -0.02);

query: Identify measured amyloid nucleation score corresponding to VWRIRTAMGTG
result: 0.766

query: Identify measured amyloid nucleation score corresponding to GVFALSPRKHLRCDVVAWGV
result: 0.884

query: Identify measured amyloid nucleation score corresponding to RGLISSVFVVMFDACGVIRC
result: 5.61

query: Identify measured amyloid nucleation score corresponding to MYCLVYHQIYSDSHA
result: 3.91

query: Identify measured amyloid nucleation score corresponding to NCWRNGCVQLFRWY
result: 5.15

query: Identify measured amyloid nucleation score corresponding to YIDALSIVFCVAVIGHTPTW
result: 8.75

query: Identify measured amyloid nucleation score corresponding to YNYWMQSLGSWVEVLSSVSV
result: -0.365

query: Identify measured amyloid nucleation score corresponding to PKIMKFGKCYTP
result: 0.065

query: Identify measured amyloid nucleation score corresponding to VEIFNLMSGTIIPGLSKLMK
result: -2.02
